Where a name gives a salt, the structure may show the parent alone.
Here, each record is paired with measured melting point data.
experimental readout: melting point

COc1ccc2cc3[n+](cc2c1OCc1cn(CCCOc2ccc4ccc(=O)oc4c2)nn1)CCc1cc2c(cc1-3)OCO2 (as salt: phosphate) : 117 to 118 °C
COc1ccc2cc3[n+](cc2c1OCc1cn(-c2cccc(S(N)(=O)=O)c2)nn1)CCc1cc2c(cc1-3)OCO2 (as salt: phosphate) : 195 to 198 °C
COc1ccc2cc3[n+](cc2c1OCCCn1cc(COc2ccc4ccc(=O)oc4c2)nn1)CCc1cc2c(cc1-3)OCO2 (as salt: phosphate) : 140 °C
COc1ccc2cc3[n+](cc2c1OCCCn1cc(COc2ccc(S(N)(=O)=O)cc2)nn1)CCc1cc2c(cc1-3)OCO2 (as salt: phosphate) : 120 to 122 °C
COc1ccc2cc3[n+](cc2c1OCc1cn(-c2ccc4c(C)cc(=O)oc4c2)nn1)CCc1cc2c(cc1-3)OCO2 (as salt: phosphate) : 280 to 282 °C

###

Here, each record is paired with measured Selectivity index (SI) I/XII data.
biological target: hCA XII (Homo sapiens, UniProt O43570); construct: made in house; test: stopped-flow CO2 hydrase assay, hCA XII; assay type: biochemical; details: hCA XII over hCA I
Sequence (O43570 25-354): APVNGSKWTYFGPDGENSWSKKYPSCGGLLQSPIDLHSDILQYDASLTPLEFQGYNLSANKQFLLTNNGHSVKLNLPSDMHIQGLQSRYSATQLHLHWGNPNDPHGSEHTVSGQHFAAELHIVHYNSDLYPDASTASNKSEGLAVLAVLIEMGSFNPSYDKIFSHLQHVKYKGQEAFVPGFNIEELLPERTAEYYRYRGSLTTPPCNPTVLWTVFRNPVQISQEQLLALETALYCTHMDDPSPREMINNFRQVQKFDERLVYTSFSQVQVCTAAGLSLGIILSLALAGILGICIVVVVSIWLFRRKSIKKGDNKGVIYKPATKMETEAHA
experimental readout: Selectivity index (SI) I/XII

COc1ccc2cc3[n+](cc2c1OCCCCn1cc(CCOc2ccc4ccc(=O)oc4c2)nn1)CCc1cc2c(cc1-3)OCO2 [Compound 38] : > 598.8
COc1ccc2cc3[n+](cc2c1OCc1cn(CCCCOc2ccc4ccc(=O)oc4c2)nn1)CCc1cc2c(cc1-3)OCO2 [Compound 43] : > 2381
COc1ccc2cc3[n+](cc2c1OCCCn1cc(CCOc2ccc4ccc(=O)oc4c2)nn1)CCc1cc2c(cc1-3)OCO2 [Compound 35] : > 529.1
COc1ccc2cc3[n+](cc2c1OCc1cn(-c2ccc4c(C)cc(=O)oc4c2)nn1)CCc1cc2c(cc1-3)OCO2 [Compound 45] : > 1852
COc1ccc2cc3[n+](cc2c1OCCCn1cc(CCCOc2ccc4ccc(=O)oc4c2)nn1)CCc1cc2c(cc1-3)OCO2 [Compound 36] : > 352.1
COc1ccc2cc3[n+](cc2c1OCCCCCn1cc(COc2ccc4ccc(=O)oc4c2)nn1)CCc1cc2c(cc1-3)OCO2 [Compound 39] : > 497.5
COc1ccc2cc3[n+](cc2c1OCCCCn1cc(COc2ccc4ccc(=O)oc4c2)nn1)CCc1cc2c(cc1-3)OCO2 [Compound 37] : > 1190

###

target: hCA XII (Homo sapiens); construct: made in house; test: stopped-flow CO2 hydrase assay, hCA XII; assay type: biochemical; details: hCA XII over hCA II
Here, each record is paired with measured Selectivity index (SI) II/XII data.
experimental readout: Selectivity index (SI) II/XII

COc1ccc2cc3[n+](cc2c1OCCCn1cc(CCCOc2ccc4ccc(=O)oc4c2)nn1)CCc1cc2c(cc1-3)OCO2 : > 352.1
COc1ccc2cc3[n+](cc2c1OCCCCn1cc(CCOc2ccc4ccc(=O)oc4c2)nn1)CCc1cc2c(cc1-3)OCO2 : > 598.8
COc1ccc2cc3[n+](cc2c1OCc1cn(CCCOc2ccc4ccc(=O)oc4c2)nn1)CCc1cc2c(cc1-3)OCO2 : > 980.4
COc1ccc2cc3[n+](cc2c1OCc1cn(CCCCOc2ccc4ccc(=O)oc4c2)nn1)CCc1cc2c(cc1-3)OCO2 : > 2381
COc1ccc2cc3[n+](cc2c1OCc1cn(CCCCCOc2ccc4ccc(=O)oc4c2)nn1)CCc1cc2c(cc1-3)OCO2 : > 689.7
COc1ccc2cc3[n+](cc2c1OCCCCCn1cc(COc2ccc4ccc(=O)oc4c2)nn1)CCc1cc2c(cc1-3)OCO2 : > 497.5
COc1ccc2cc3[n+](cc2c1OCc1cn(-c2ccc4c(C)cc(=O)oc4c2)nn1)CCc1cc2c(cc1-3)OCO2 : > 1852
